- measurement-target: HaloTag[22-297](M2F + K140E)-12xGly/Ser-LgBiT-3xGly/Ser-6xHis (Rhodococcus rhodochrous, UniProt P0A3G2, A155T/A167V/A172T/A224E/C128F/C176G/D78G/E257K/H272N/K175M/K195N/L47V/L88M/N227D/S58T/T264A/Y273L/Y87F)
- assay: biochemical
- Type: binding
- condition-details: biotinylated peptide on streptavidin probes, PBST, 25° C.
Would you kindly list Kon for each of these sequences?
Give bare numbers, in M⁻¹ s⁻¹.

Sample records with Kon:
sequence-string	Kon [M⁻¹ s⁻¹]
EIGTGFPFRPHYVEVRGGGSGVSVSGWRLFKKIS [HaloTag[3-19](D9R + L16R)-4xGS-VSHiBiT]	134000
EIGTGFPFDPHYVKVLGGGSGVSVSGWRLFKKIS [HaloTag[3-19](E14K)-4xGly/Ser-VSHiBiT]	108000
EIKTGFPFDPHYVEVRGGGSGVSVSGWRLFKKIS [HaloTag[3-19](G3K + L16R)-4xGS-VSHiBiT]	97100
ERGTGFPFDPHYVEVLRGGSGVSVSGWRLFKKIS [HaloTag[3-19](I2R + G17R)-4xGS-VSHiBiT]	93300
EIKTGFPFDPHYVKVLGGGSGVSVSGWRLFKKIS [HaloTag[3-19](G3K + E14K)-4xGS-VSHiBiT]	128000
ERGTGFPFRPHYVEVLGGGSGVSVSGWRLFKKIS [HaloTag[3-19](I2R + D9R)-4xGS-VSHiBiT]	128000

Turning to the following sequence.
Q: Requested field: Kon. Item: EIGTGFPFDPHYVEVRGGGSGVSVSGWRLFKKIS [HaloTag[3-19](L16R)-4xGly/Ser-VSHiBiT]
Ans: 77900
